Every entry's value here was drawn from ChEMBL document CHEMBL1144635.

assay: Clearance in mouse at 10 mg/kg, iv; type: ADME, organism-based; set-up: dose 10 mg/kg, route intravenous; conditions: in vivo
Criterion: clearance strictly less than 50 mL/min/kg. Met: criterion met. Not met: criterion not met.

Compound	Assigned Category
CCc1ccc(NS(=O)(=O)c2ccc(F)cc2/C=C\CN(CC)CC)c(C(=O)O)c1OC	criterion not met
CCc1ccc(NS(=O)(=O)c2ccccn2)c(C(=O)O)c1C	criterion met
CCc1ccc(NS(=O)(=O)c2ccccc2NCCC2CCCN2C)c(C(=O)O)c1OC (stereo not given)	criterion not met
CCc1ccc(NS(=O)(=O)c2ccccc2NCCCCN(C)C)c(C(=O)O)c1OC	criterion met
